assay: physchem
attribute-measured: logP

molecule="COc1ccc([S+](c2ccc(OC)cc2)c2ccc(Oc3ccc(C)cc3)cc2)cc1 [Compound S-4]" attribute_measured=logP result_number=0.15
molecule="COc1ccc([S+](c2ccc(C)cc2)c2ccc(OC)cc2)cc1 [Compound S-2]" attribute_measured=logP result_number=0.12
molecule="COc1ccc([S+](c2ccc(OC)cc2)c2ccc(OC)cc2)cc1 [Compound S-1]" attribute_measured=logP result_number=0.1
molecule="COc1ccc([S+](c2ccc(C)cc2)c2ccc(C)cc2)cc1 [Compound S-3]" attribute_measured=logP result_number=0.12
